Where these numbers come from: patent US20240270762A1

Test system: N. gonorrhoeae WHO L
Test: Liquid broth MIC in Fastidious broth
Details: Neisseria gonorrhoeae, read-out: Minimum Inhibitory Concentration (MIC), N. gonorrhoeae WHO L
recorded_metric: MIC

compound="CN1CCCN(C(=O)NC(C(=O)N[C@H]2Cc3cccc(C(=O)O)c3OB2O)c2ccc(P(=O)(O)O)cc2)C1=O (stereo partly shown) [Example 38]" recorded_metric=MIC experimental_value="16 to 32 µg/mL"
compound="NC(C(=O)N[C@H]1Cc2ccc(F)c(C(=O)O)c2OB1O)c1ccc(P(=O)(O)O)cc1 (stereo partly shown) [Example 14]" recorded_metric=MIC experimental_value="> 64 µg/mL"
compound="O=C(O)c1cccc2c1OB(O)[C@@H](NC(=O)C(NC(=O)C1CC1)c1ccc(P(=O)(O)O)cc1)C2 (stereo partly shown) [Example 30]" recorded_metric=MIC experimental_value="16 to 32 µg/mL"
compound="O=C1CC[C@@H](C(=O)NC(C(=O)N[C@H]2Cc3cccc(C(=O)O)c3OB2O)c2ccc(P(=O)(O)O)cc2)N1 (stereo partly shown) [Example 64]" recorded_metric=MIC experimental_value="16 to 32 µg/mL"
compound="CCN1CCN(C(=O)NC(C(=O)N[C@H]2Cc3cccc(C(=O)O)c3OB2O)c2cc(P(=O)(O)O)ccc2F)C(=O)C1=O (stereo partly shown) [Example 2]" recorded_metric=MIC experimental_value="> 64 µg/mL"
compound="O=C(CN1CCN(C(=O)N[C@@H](C(=O)N[C@H]2Cc3ccc(F)c(C(=O)O)c3OB2O)c2cc(F)c(O)c(O)c2Cl)C(=O)C1=O)NCc1nccs1 [Example 241]" recorded_metric=MIC experimental_value="> 64 µg/mL"
compound="O=C(O)c1cccc2c1OB(O)[C@@H](NC(=O)[C@H](NC(=O)c1c[nH]ccc1=O)c1ccc(P(=O)(O)O)cc1)C2 [Example 175]" recorded_metric=MIC experimental_value="16 to 32 µg/mL"

* * *

System: A. baumannii ATCC 19606
Assay: microbe, parasite or virus in culture
Type: cell-based
Conditions: Acinetobacter baumannii, ATCC19606, read-out: MIC, A. baumannii ATCC 19606
# key: entry, value: MIC
recorded_metric: MIC

compound="O=C(CN1CCN(C(=O)NC(C(=O)N[C@H]2Cc3ccc(F)c(C(=O)O)c3OB2O)c2cc(F)c(O)c(O)c2Cl)C(=O)C1=O)Nc1ccccc1 (some centres unmarked)" recorded_metric=MIC experimental_value="2 to 4 µg/mL"
compound="O=C(NCCCN1CCN(C(=O)NC(C(=O)N[C@H]2Cc3ccc(F)c(C(=O)O)c3OB2O)c2cc(F)c(O)c(O)c2Cl)C(=O)C1=O)c1cc(O)c(F)c(O)c1F (some centres unmarked)" recorded_metric=MIC experimental_value="< 1 µg/mL"
compound="O=C(O)c1c(F)ccc2c1OB(O)[C@@H](NC(=O)C(NC(=O)N1CCN(C3CCN(C(=O)Nc4cc(O)ccc4Cl)CC3)C(=O)C1=O)c1cc(F)c(O)c(O)c1Cl)C2 (some centres unmarked)" recorded_metric=MIC experimental_value="< 1 µg/mL"
compound="O=C(NCCS(=O)(=O)N1CCN(C(=O)NC(C(=O)N[C@H]2Cc3ccc(F)c(C(=O)O)c3OB2O)c2cc(F)c(O)c(O)c2Cl)C1=O)Nc1cccc(O)c1 (some centres unmarked)" recorded_metric=MIC experimental_value="< 1 µg/mL"
compound="O=C(NCCCN1CCN(C(=O)NC(C(=O)N[C@H]2Cc3ccc(F)c(C(=O)O)c3OB2O)c2cc(F)c(O)c(O)c2Cl)C1=O)c1nccs1 (some centres unmarked)" recorded_metric=MIC experimental_value="< 1 µg/mL"
compound="O=C(O)c1c(F)ccc2c1OB(O)[C@@H](NC(=O)[C@H](NC(=O)N1CCN(C3CCN(C(=O)c4cc(O)ccc4Cl)CC3)C1=O)c1cc(F)c(O)c(O)c1Cl)C2 (single isomer, unassigned)" recorded_metric=MIC experimental_value="< 1 µg/mL"
compound="O=C(O)c1c(F)ccc2c1OB(O)[C@@H](NC(=O)C(NC(=O)N1CCN(C3CCN(C(=O)c4c(F)ccc(O)c4F)CC3)C(=O)C1=O)c1cc(F)c(O)c(O)c1Cl)C2 (some centres unmarked)" recorded_metric=MIC experimental_value="< 1 µg/mL"
compound=CN(CCN1CCN(C(=O)N[C@@H](C(=O)N[C@H]2Cc3ccc(F)c(C(=O)O)c3OB2O)c2cc(F)c(O)c(O)c2Cl)C(=O)C1=O)Cc1nccs1 recorded_metric=MIC experimental_value="< 1 µg/mL"
compound=O=C(NCCCN1CCN(C(=O)N[C@H](C(=O)N[C@H]2Cc3ccc(F)c(C(=O)O)c3OB2O)c2cc(F)c(O)c(O)c2Cl)C1=O)c1ccccc1 recorded_metric=MIC experimental_value="> 128 µg/mL"
compound=O=C(NCCCN1CCN(C(=O)N[C@H](C(=O)N[C@H]2Cc3ccc(F)c(C(=O)O)c3OB2O)c2cc(F)c(O)c(O)c2Cl)C(=O)C1=O)c1ccnc(F)c1F recorded_metric=MIC experimental_value="2 to 4 µg/mL"
compound="O=C(O)c1c(F)ccc2c1OB(O)[C@@H](NC(=O)[C@H](NC(=O)N1CCN(C3CCN(C(=O)c4cccc(O)c4)CC3)C1=O)c1cc(F)c(O)c(O)c1Cl)C2 (single isomer, unassigned)" recorded_metric=MIC experimental_value="< 1 µg/mL"

* * *

Test system: N. gonorrhoeae WHO Q
Assay: Liquid broth MIC in Fastidious broth
Details: Neisseria gonorrhoeae, read-out: Minimum Inhibitory Concentration, WHO Q
# key: entry, value: MIC
recorded_metric: MIC

compound="O=C(NCCCS(=O)(=O)N1CCN(C(=O)NC(C(=O)N[C@H]2Cc3ccc(F)c(C(=O)O)c3OB2O)c2cc(F)c(O)c(O)c2Cl)C1=O)Nc1cccnc1 (some centres unmarked)" experimental_value="16 to 32 µg/mL"
compound=O=C(NCCCN1CCN(C(=O)N[C@H](C(=O)N[C@H]2Cc3ccc(F)c(C(=O)O)c3OB2O)c2cc(F)c(O)c(O)c2Cl)C1=O)Nc1ccc(O)cc1 experimental_value="> 64 µg/mL"
compound="O=C(NCCCS(=O)(=O)N1CCN(C(=O)NC(C(=O)N[C@H]2Cc3ccc(F)c(C(=O)O)c3OB2O)c2cc(F)c(O)c(O)c2Cl)C1=O)c1ccccc1 (some centres unmarked)" experimental_value="16 to 32 µg/mL"
compound=O=C(NCCCN1CCN(C(=O)N[C@H](C(=O)N[C@H]2Cc3ccc(F)c(C(=O)O)c3OB2O)c2cc(F)c(O)c(O)c2Cl)C1=O)c1cccc(O)c1 experimental_value="> 64 µg/mL"
compound="O=C(NCCCS(=O)(=O)N1CCN(C(=O)NC(C(=O)N[C@H]2Cc3ccc(F)c(C(=O)O)c3OB2O)c2cc(F)c(O)c(O)c2Cl)C1=O)Nc1ccc(O)cc1 (some centres unmarked)" experimental_value="16 to 32 µg/mL"
compound="O=C(O)c1c(F)ccc2c1OB(O)[C@@H](NC(=O)C(NC(=O)N1CCN(Cc3ccc(O)c(O)c3Cl)C(=O)C1=O)c1cc(F)c(O)c(O)c1Cl)C2 (some centres unmarked)" experimental_value="> 64 µg/mL"
compound=O=C(NCCCN1CCN(C(=O)N[C@@H](C(=O)N[C@H]2Cc3ccc(F)c(C(=O)O)c3OB2O)c2cc(F)c(O)c(O)c2Cl)C1=O)Nc1ccc(O)cc1 experimental_value="4 to 8 µg/mL"
compound=O=C(NCCCN1CCN(C(=O)N[C@@H](C(=O)N[C@H]2Cc3ccc(F)c(C(=O)O)c3OB2O)c2cc(F)c(O)c(O)c2Cl)C(=O)C1=O)c1ccncc1 experimental_value="> 64 µg/mL"
compound=O=C(NCCCN1CCN(C(=O)N[C@@H](C(=O)N[C@H]2Cc3ccc(F)c(C(=O)O)c3OB2O)c2cc(F)c(O)c(O)c2Cl)C1=O)c1ccccc1 experimental_value="16 to 32 µg/mL"
compound="O=C(O)c1c(F)ccc2c1OB(O)[C@@H](NC(=O)C(NC(=O)N1CCN(C3CCN(C(=O)c4cccc(O)c4)CC3)C(=O)C1=O)c1cc(F)c(O)c(O)c1Cl)C2 (some centres unmarked)" experimental_value="> 64 µg/mL"
compound="O=C(NCCN1CCN(C(=O)NC(C(=O)N[C@H]2Cc3ccc(F)c(C(=O)O)c3OB2O)c2cc(F)c(O)c(O)c2Cl)C1=O)c1nccs1 (some centres unmarked)" experimental_value="16 to 32 µg/mL"

* * *

# key: entry, value: MIC
Tested on: N. gonorrhoeae CDC-0197
Assay: Liquid broth MIC in Fastidious broth
Settings: Neisseria gonorrhoeae, CDC0197, read-out: Minimum Inhibitory Concentration, CDC-0197
recorded_metric: MIC

molecule="O=C(NCCCN1CCN(C(=O)NC(C(=O)N[C@H]2Cc3ccc(F)c(C(=O)O)c3OB2O)c2cc(F)c(O)c(O)c2Cl)C(=O)C1=O)c1ccc(O)c(Cl)c1 (some centres unmarked)" recorded_metric=MIC experimental_value="> 64 µg/mL"
molecule=O=C(NCCCN1CCN(C(=O)N[C@@H](C(=O)N[C@H]2Cc3ccc(F)c(C(=O)O)c3OB2O)c2cc(F)c(O)c(O)c2Cl)C(=O)C1=O)c1cccc(O)c1Cl recorded_metric=MIC experimental_value="16 to 32 µg/mL"
molecule="O=C(O)c1c(F)ccc2c1OB(O)[C@@H](NC(=O)C(NC(=O)N1CCN(Cc3ccc(O)c(O)c3Cl)C(=O)C1=O)c1cc(F)c(O)c(O)c1Cl)C2 (some centres unmarked)" recorded_metric=MIC experimental_value="> 64 µg/mL"
molecule="O=C(NCCCN1CCN(C(=O)NC(C(=O)N[C@H]2Cc3ccc(F)c(C(=O)O)c3OB2O)c2cc(F)c(O)c(O)c2Cl)C(=O)C1=O)c1ccc(O)cc1O (some centres unmarked)" recorded_metric=MIC experimental_value="> 64 µg/mL"
molecule="O=C(NCCCS(=O)(=O)N1CCN(C(=O)NC(C(=O)N[C@H]2Cc3ccc(F)c(C(=O)O)c3OB2O)c2cc(F)c(O)c(O)c2Cl)C1=O)c1ccncc1 (some centres unmarked)" recorded_metric=MIC experimental_value="16 to 32 µg/mL"
molecule=Cc1cc(C(=O)NCCCN2CCN(C(=O)N[C@@H](C(=O)N[C@H]3Cc4ccc(F)c(C(=O)O)c4OB3O)c3cc(F)c(O)c(O)c3Cl)C(=O)C2=O)ccn1 recorded_metric=MIC experimental_value="> 64 µg/mL"
molecule="O=C(NCCCN1CCN(C(=O)NC(C(=O)N[C@H]2Cc3ccc(F)c(C(=O)O)c3OB2O)c2cc(F)c(O)c(O)c2Cl)C1=O)c1nccs1 (some centres unmarked)" recorded_metric=MIC experimental_value="> 64 µg/mL"
molecule="O=C(NCCS(=O)(=O)N1CCN(C(=O)NC(C(=O)N[C@H]2Cc3ccc(F)c(C(=O)O)c3OB2O)c2cc(F)c(O)c(O)c2Cl)C1=O)Nc1cccc(O)c1 (some centres unmarked)" recorded_metric=MIC experimental_value="16 to 32 µg/mL"
molecule="O=C(NCCCS(=O)(=O)N1CCN(C(=O)NC(C(=O)N[C@H]2Cc3ccc(F)c(C(=O)O)c3OB2O)c2cc(F)c(O)c(O)c2Cl)C1=O)Nc1cccnc1 (some centres unmarked)" recorded_metric=MIC experimental_value="16 to 32 µg/mL"
molecule=O=C(NCCS(=O)(=O)N1CCN(C(=O)N[C@@H](C(=O)N[C@H]2Cc3ccc(F)c(C(=O)O)c3OB2O)c2cc(F)c(O)c(O)c2Cl)C1=O)c1nccs1 recorded_metric=MIC experimental_value="16 to 32 µg/mL"
molecule="O=C(NCCS(=O)(=O)N1CCN(C(=O)NC(C(=O)N[C@H]2Cc3ccc(F)c(C(=O)O)c3OB2O)c2cc(F)c(O)c(O)c2Cl)C1=O)c1ccccc1 (some centres unmarked)" recorded_metric=MIC experimental_value="16 to 32 µg/mL"
molecule=O=C(NCCCN1CCN(C(=O)N[C@@H](C(=O)N[C@H]2Cc3ccc(F)c(C(=O)O)c3OB2O)c2cc(F)c(O)c(O)c2Cl)C1=O)Nc1ccc(O)cc1 recorded_metric=MIC experimental_value="16 to 32 µg/mL"
molecule=O=C(NCCCN1CCN(C(=O)N[C@@H](C(=O)N[C@H]2Cc3ccc(F)c(C(=O)O)c3OB2O)c2cc(F)c(O)c(O)c2Cl)C1=O)c1cccc(O)c1 recorded_metric=MIC experimental_value="16 to 32 µg/mL"
molecule=O=C(NCCCN1CCN(C(=O)N[C@H](C(=O)N[C@H]2Cc3ccc(F)c(C(=O)O)c3OB2O)c2cc(F)c(O)c(O)c2Cl)C(=O)C1=O)c1cccc(O)c1Cl recorded_metric=MIC experimental_value="> 64 µg/mL"
molecule=O=C(NCCCN1CCN(C(=O)N[C@H](C(=O)N[C@H]2Cc3ccc(F)c(C(=O)O)c3OB2O)c2cc(F)c(O)c(O)c2Cl)C(=O)C1=O)c1ccnc(F)c1F recorded_metric=MIC experimental_value="> 64 µg/mL"
molecule="O=C(NCCCS(=O)(=O)N1CCN(C(=O)NC(C(=O)N[C@H]2Cc3ccc(F)c(C(=O)O)c3OB2O)c2cc(F)c(O)c(O)c2Cl)C1=O)c1cccnc1 (some centres unmarked)" recorded_metric=MIC experimental_value="16 to 32 µg/mL"
molecule=O=C(NCCS(=O)(=O)N1CCN(C(=O)N[C@H](C(=O)N[C@H]2Cc3ccc(F)c(C(=O)O)c3OB2O)c2cc(F)c(O)c(O)c2Cl)C1=O)c1nccs1 recorded_metric=MIC experimental_value="> 64 µg/mL"
